Hey, just so you know, these numbers are from PubChem BioAssay (NCI).

# Test system: SNB-75 CNS
# measurement-notes: NCI tumour cell line growth inhibition, 48 h
assay-readout: TGI

Exercise: Please report the recorded TGI for C=C(C(=O)OC)[C@@H]1C[C@@H](OC(C)=O)C2=C[C@H](C[C@@]3(C)O[C@@H]3C3=CC(C)=C(O3)[C@H]1OC(C)=O)OC2=O .
Key: > 100 µM

Exercise: // same read-out, input: CCCCCCCCCC[C@H](O)[C@H](O)CC[C@@H](O)[C@H]1CC[C@@H]([C@H]2CC[C@H](CCCCCCC[C@@H](O)CC3=C[C@H](C)OC3=O)O2)O1
Key: 98.2 µM

Exercise: // same read-out, input: COC(=O)CCNC(=O)OCc1ccccc1
Key: > 100 µM

Exercise: // same read-out, input: CC(C)COc1nc2c(c(=O)n(C)c(=O)n2C)n1C
Key: > 100 µM

Exercise: // same read-out, input: CCOC(=O)c1nc2cc(C(F)(F)F)ccc2nc1Nc1ccc(C(=O)OC)s1
Key: > 100 µM

Exercise: // same read-out, input: CSc1nc2c(c(=O)n1C)CN(C1CCCCC1)C(=O)C(c1ccccc1)N2 (centres undefined)
Key: > 100 µM

Exercise: // same read-out, input: NC1=NN(c2ccccc2)C(=O)C1C(=O)C(=O)Nc1ccc(Cl)c(Cl)c1 (centres undefined)
Key: 85 µM

Exercise: // same read-out, input: COc1ccccc1C(O)[C@@H]1C[C@@H]2[C@H]3CC[C@@](C)([C@@H]2O1)C3(C)C (some centres undefined)
Key: 37.7 µM

Exercise: // same read-out, input: O=C(/C=C/c1cccc([N+](=O)[O-])c1)c1ccc([N+](=O)[O-])cc1
Key: > 100 µM

Exercise: // same read-out, input: C/C=C1/CC(C)C(C)(O)C(=O)OCC2C(O)CN3CCC(OC1=O)C23 (centres undefined)
Key: > 100 µM

Exercise: // same read-out, input: CCN(Cc1cccc(Cl)c1)c1ccc(CO)c(Cl)c1
Key: 30.2 µM

Exercise: // same read-out, input: CSCSCC(CO)NC(=O)/C(C)=C\c1c(C)[nH]c(=O)[nH]c1=O (centres undefined)
Key: > 250 µM

Exercise: // same read-out, input: O=C1C=CC(=O)c2c(O)c3c(c(O)c21)C[C@H](O)[C@H](O)[C@@H]3O
Key: 7.99 µM

Exercise: // same read-out, input: CCOc1ccn(-c2ccc(F)cc2)c(=O)c1C(=O)Nc1ccc(Oc2ccnc(N)c2Cl)c(F)c1
Key: 22.5 µM

Exercise: // same read-out, input: CN1CCN(Cc2ccc(NC(=O)c3cncc(C#Cc4cnc(N)c5cccnc45)c3)cc2C(F)(F)F)CC1
Key: > 12 µM

Exercise: // same read-out, input: CN(/N=C/c1ccnc2ccccc12)c1c([N+](=O)[O-])cc([N+](=O)[O-])cc1[N+](=O)[O-]
Key: > 100 µM

Exercise: // same read-out, input: CCOC(=O)/C=C(/C(=O)OCC)n1ccc(=O)n(Cc2cnnn2COCCOC(C)=O)c1=O
Key: > 100 µM

Exercise: // same read-out, input: CC(=O)NCC1OC2COC(c3ccccc3)OC2C(NC(=O)c2ccccc2)C1OC(=O)c1ccccc1 (centres undefined)
Key: > 100 µM

Exercise: // same read-out, input: O=C(NCC1CCCO1)c1ccc(NC2=C(Cl)C(=O)N(Cc3ccccc3)C2=O)cc1 (centres undefined)
Key: 39.3 µM
